# System: L1210 leukemia ip in BDF1 mice, survival T/C
# Test details: NCI In Vivo Anticancer Drug Screen. Data for tumor model L1210 Leukemia (intraperitoneal) in B6D2F1 (BDF1) mice
# Assay conditions: endpoint: mean survival time; dose: 25.0 mg/kg/injection; schedule: Q01DX009 (ip); vehicle: Klucel (hydroxypropylcellulose) (HPC); higher = longer survival
Toxic doses and inconclusive results are not listed.
Task for the reader: assign each of the following compounds its reported T/C.

Qu. Requested field: T/C. Item: `c1ccc2c3c(sc2c1)CNCC3`
Ans. 107 % of control

Qu. Please answer likewise for `COc1ccc(C(=O)OCCN(CCN(CCOC(=O)c2ccc(OC)cc2)C(=O)c2ccc(OC)cc2)C(=O)c2ccc(OC)cc2)cc1`
Ans. 88 % of control

Qu. Please answer likewise for `CCCCCCCN1CCC(C(=O)CC)(c2cccc(O)c2)CC1`
Ans. 98 % of control

Qu. Please answer likewise for CCCCNC(C)(C)C(SSSC(c1ccc(Cl)cc1)C(C)(C)NCCCC)c1ccc(Cl)cc1 (stereo unspecified)
Ans. 100 % of control

Qu. Please answer likewise for `COC(=O)/C(=C1\C=C(c2ccccc2)C(=O)O1)c1ccccc1`
Ans. 98 % of control

Qu. Please answer likewise for `O=NO.O=N[O-].O=N[O-].[Co+3].[NH2-].[NH2-].[NH2-].[NH2-]`
Ans. 107 % of control

Qu. Please answer likewise for `N[C@H](C(=O)O)[C@H]1ON=C(Cl)[C@@H]1O`
Ans. 118 % of control

Qu. Please answer likewise for `COc1ccc(OC)c(NC(=O)Sc2ccccc2O)c1`
Ans. 100 % of control

Qu. Please answer likewise for `CCOC(=O)Nc1cc2c(c(N)n1)N=C(CN(C)c1ccccc1)CN2`
Ans. 120 % of control

Qu. Please answer likewise for `Clc1ccc(SSC(Cl)(Cl)Cl)cc1`
Ans. 98 % of control

Qu. Please answer likewise for `Oc1ccc(OCc2ccccc2)cc1`
Ans. 110 % of control

Cited source: PubChem BioAssay AID248
